- system_name: UniProt Q9NR96
- Sequence (Q9NR96 26-1032): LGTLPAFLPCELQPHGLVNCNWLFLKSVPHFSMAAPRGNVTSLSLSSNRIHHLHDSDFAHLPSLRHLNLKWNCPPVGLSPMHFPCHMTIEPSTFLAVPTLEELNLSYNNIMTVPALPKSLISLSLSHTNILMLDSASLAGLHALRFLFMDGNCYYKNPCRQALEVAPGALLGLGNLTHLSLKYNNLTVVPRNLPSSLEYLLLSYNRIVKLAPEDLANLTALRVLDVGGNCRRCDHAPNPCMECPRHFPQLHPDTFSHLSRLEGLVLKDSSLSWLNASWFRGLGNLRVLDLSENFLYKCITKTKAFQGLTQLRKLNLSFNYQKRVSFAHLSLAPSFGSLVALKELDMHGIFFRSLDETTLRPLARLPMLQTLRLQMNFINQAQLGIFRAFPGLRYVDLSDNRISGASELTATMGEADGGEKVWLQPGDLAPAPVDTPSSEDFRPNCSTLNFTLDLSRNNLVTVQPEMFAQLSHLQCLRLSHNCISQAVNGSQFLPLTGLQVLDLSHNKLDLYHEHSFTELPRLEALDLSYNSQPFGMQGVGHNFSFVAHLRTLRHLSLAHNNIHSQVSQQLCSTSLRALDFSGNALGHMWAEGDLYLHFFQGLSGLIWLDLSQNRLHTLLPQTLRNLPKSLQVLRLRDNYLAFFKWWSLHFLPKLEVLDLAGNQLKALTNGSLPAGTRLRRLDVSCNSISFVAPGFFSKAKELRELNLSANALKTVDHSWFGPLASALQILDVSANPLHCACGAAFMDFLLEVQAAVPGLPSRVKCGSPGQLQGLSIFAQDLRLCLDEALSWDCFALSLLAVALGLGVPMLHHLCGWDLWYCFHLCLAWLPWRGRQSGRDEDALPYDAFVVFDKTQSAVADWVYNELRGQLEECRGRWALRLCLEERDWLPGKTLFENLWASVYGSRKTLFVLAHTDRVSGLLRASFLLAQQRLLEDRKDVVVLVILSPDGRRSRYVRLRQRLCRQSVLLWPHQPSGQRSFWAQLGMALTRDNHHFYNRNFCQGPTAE
- experiment_notes: TLR9 inhibition reporter assay (HEK-Blue cells, SEAP reporter, ODN2006 stimulation);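 also: compounds tested over 0.05 nM to 50 µM, 22 h incubation, inhibition taken as SEAP signal drop from agonist plus DMSO wells toward a known inhibitor control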
- recorded_conditions: read-out: TLR9 IC50, HEK-Blue cells overexpressing human TLR9, ODN2006 5 nM
readout: IC50 (nM)

The cases that follow already have their IC50 on record.
[
  {
    "compound": "CCc1c(-c2ccnc(C)c2C)[nH]c2ccc(C3CCNCC3)cc12",
    "IC50 / nM": 1110
  },
  {
    "compound": "CC(C)c1c(-c2ccnc(C(=O)NCC(F)(F)F)c2)[nH]c2ccc(C3CCNCC3)cc12",
    "IC50 / nM": 3260
  },
  {
    "compound": "Cc1cc(-c2[nH]c3ccc(C4CCN(Cc5ncn(C)n5)CC4)cc3c2C(C)C)c(C)cn1",
    "IC50 / nM": 14500
  },
  {
    "compound": "Cc1cc(-c2[nH]c3ccc(C4CCN(C(=O)CNC(CO)CC(C)C)CC4)cc3c2C(C)C)cc(C)n1 (centres unmarked)",
    "IC50 / nM": 769
  },
  {
    "compound": "CCc1c(-c2ccnc(OC)c2)[nH]c2ccc(C3CCN(C4CCN(CC(C)C)CC4)CC3)cc12",
    "IC50 / nM": 412
  }
]

(1) Cc1cc(-c2[nH]c3ccc(C4CCN(C(=O)CN5CCCCC5)CC4)cc3c2C(C)C)cc(C)n1
(2) Cc1cc(-c2[nH]c3ccc(C4CCN(C(C)C)CC4)cc3c2CC(F)F)cc(C)n1
Q: Pick one: 1 or 2 . Which has the bigger IC50 number? API: response body contains the label of the selected item.
Result: 1
